assay: AUC (0 to infinity) in rat at 1 mg/kg, po; format: ADME, organism-based; design: time infinity, dose 1 mg/kg, route oral; settings: plasma
Measured Quantity: AUC(0-inf) (µM·h)

* COc1ccc(O[C@@H](CC(C)C)[C@H]2CCNC2)c(C)n1 | 0.251

---

assay: Clearance in rat at 1 mg/kg, iv; type: ADME, organism-based; set-up: dose 1 mg/kg, route intravenous; settings: in vivo
Measured Quantity: clearance (mL/min/kg)

* COc1ccc(O[C@@H](CC(C)C)[C@H]2CCNC2)c(C)n1 | 120

---

target: CYP3A4 (Homo sapiens, UniProt P08684); assay: Inhibition of CYP3A4 (unknown origin) at 10 uM; format: ADME
Sequence (P08684 whole entry): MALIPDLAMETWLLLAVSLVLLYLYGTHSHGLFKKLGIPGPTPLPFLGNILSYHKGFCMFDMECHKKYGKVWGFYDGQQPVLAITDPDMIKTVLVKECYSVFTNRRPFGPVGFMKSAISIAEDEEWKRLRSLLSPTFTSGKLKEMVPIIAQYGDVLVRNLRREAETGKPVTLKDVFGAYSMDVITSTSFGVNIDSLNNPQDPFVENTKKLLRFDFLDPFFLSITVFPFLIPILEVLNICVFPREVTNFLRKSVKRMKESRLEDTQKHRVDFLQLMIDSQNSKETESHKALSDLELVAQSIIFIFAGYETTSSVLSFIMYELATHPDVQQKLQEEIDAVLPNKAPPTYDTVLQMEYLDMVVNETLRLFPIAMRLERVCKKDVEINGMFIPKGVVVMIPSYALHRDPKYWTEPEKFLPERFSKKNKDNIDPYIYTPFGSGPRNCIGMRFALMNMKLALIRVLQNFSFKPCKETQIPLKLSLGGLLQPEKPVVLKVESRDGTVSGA
Measured Quantity: inhibition at 10 µM

• COc1ccc(O[C@@H](CC(C)C)[C@H]2CCNC2)c(C)n1 = < 30%
